The origin of these recorded values is patent US10039753B2.

testSystem: mutant G2019S LRRK2 (Homo sapiens, UniProt Q5S007, G2019S)
Sequence (Q5S007 970-2527 G2019S limits assumed): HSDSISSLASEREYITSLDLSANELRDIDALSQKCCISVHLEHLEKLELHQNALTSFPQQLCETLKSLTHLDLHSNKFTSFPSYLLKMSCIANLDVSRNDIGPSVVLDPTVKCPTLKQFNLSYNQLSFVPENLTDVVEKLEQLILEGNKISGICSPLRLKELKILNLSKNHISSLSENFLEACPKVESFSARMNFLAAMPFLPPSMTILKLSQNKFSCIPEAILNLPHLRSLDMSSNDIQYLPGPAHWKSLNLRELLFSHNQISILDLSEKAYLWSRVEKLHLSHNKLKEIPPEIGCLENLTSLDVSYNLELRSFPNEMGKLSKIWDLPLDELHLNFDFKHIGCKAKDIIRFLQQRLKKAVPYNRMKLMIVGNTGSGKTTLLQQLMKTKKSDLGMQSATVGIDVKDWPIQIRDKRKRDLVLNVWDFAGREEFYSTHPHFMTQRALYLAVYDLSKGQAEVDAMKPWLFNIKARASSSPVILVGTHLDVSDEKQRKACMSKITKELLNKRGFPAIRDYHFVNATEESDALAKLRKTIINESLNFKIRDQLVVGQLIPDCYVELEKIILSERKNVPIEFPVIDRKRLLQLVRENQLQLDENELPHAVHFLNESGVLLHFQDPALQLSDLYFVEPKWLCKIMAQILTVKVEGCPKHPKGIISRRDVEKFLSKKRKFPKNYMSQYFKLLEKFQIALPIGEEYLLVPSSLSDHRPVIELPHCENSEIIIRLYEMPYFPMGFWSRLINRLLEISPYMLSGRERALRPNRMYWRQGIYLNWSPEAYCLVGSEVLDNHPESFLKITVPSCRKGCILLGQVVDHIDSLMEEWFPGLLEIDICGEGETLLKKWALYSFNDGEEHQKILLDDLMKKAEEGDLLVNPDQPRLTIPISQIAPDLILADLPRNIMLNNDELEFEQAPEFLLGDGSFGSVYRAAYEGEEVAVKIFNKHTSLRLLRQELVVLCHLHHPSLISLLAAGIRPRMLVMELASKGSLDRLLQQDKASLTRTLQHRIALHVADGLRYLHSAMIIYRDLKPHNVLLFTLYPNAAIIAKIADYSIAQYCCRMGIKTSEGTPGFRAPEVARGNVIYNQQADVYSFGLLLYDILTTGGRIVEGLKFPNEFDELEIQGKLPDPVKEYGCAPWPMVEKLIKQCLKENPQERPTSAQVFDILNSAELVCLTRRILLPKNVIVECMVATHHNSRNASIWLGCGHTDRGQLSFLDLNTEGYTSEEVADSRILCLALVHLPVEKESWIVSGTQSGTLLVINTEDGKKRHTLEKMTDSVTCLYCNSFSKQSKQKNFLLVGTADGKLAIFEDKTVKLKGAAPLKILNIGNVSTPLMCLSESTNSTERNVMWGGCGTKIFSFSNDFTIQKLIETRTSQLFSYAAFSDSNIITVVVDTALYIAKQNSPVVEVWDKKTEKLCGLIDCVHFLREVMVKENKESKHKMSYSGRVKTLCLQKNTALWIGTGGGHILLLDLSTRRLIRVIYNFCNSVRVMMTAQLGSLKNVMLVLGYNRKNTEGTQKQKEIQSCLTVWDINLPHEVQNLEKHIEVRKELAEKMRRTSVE
experimentSummary: LRRK2 Assay, Format 2 (Lantha Screen), G2019S mutant
Type: biochemical
Set-up: purchased Invitrogen PV4881
conditionLabel: geometric mean of 2-4 determinations unless otherwise indicated (a: >=5; b: single determination); read-out: LRRK2, Format 2 G2019S IC50
Method: LRRK2 kinase activity was measured using Lantha Screen technology from Invitrogen. […] Upon completion, the assay was stopped and detected with a terbium labeled anti-phospho-ERM antibody (Invitrogen, cat # PR8975A). […] After an incubation of 1 hour at room temperature, the plate was read on an Envision with an excitation wavelength of 340 nm and a reading emission at both 520 nm and 495 nm. […] Inhibition of mutant G2019S LRRK2 (Invitrogen cat # PV4881) was measured in the exact same method. […]
pIC50: −log10 of the molar value. Where a name gives a salt, the structure may show the parent alone.
propertyName: pIC50

compound	testSystem	pIC50
C[C@@H]1C[C@H](n2c(Cc3cc(=O)n4ccccc4n3)nc3cnc4ccc(Cl)cc4c32)CCO1 [Example 164, formate salt]	mutant G2019S LRRK2 (Homo sapiens, UniProt Q5S007, G2019S)	8.21
Cc1nnn(Cc2nc3cnc4ccc(Cl)cc4c3n2[C@@H]2CCO[C@H](C)C2)n1	mutant G2019S LRRK2 (Homo sapiens, UniProt Q5S007, G2019S)	8.02
C[C@@H]1C[C@H](n2c(Cn3nccn3)nc3cnc4ccc(Cl)cc4c32)CCO1 [Example 161, formate salt]	mutant G2019S LRRK2 (Homo sapiens, UniProt Q5S007, G2019S)	8.16
C[C@@H]1C[C@H](n2c(C(F)c3ccon3)nc3cnc4ccc(Cl)cc4c32)CCO1 (single isomer, unassigned) [Example 238]	mutant G2019S LRRK2 (Homo sapiens, UniProt Q5S007, G2019S)	8.42

a = N#Cc1ccc2ncc3nc(Cc4cc(C(F)(F)F)on4)n([C@@H]4CC[C@H](F)C4)c3c2c1 (single isomer, unassigned; ent-1)
b = C[C@@H]1C[C@H](n2c(Cc3nnnn3C)nc3cnc4ccc(Cl)cc4c32)CCO1 [Example 128, formate salt]
c = CO[C@H]1C[C@@H](n2c(Cn3cc(C)cn3)nc3cnc4ccc(Cl)cc4c32)C1
**Query** Please put the entries in order of rising pIC50. Field: ranking. Enter the labels in the order requested.
**Result** c, a, b
(c: 7.52, a: 7.73, b: 8.16)
